# experimental.target: Rho-associated protein kinase 2 (Homo sapiens) (UniProt O75116);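 also: values are averaged inhibition readings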
# experimental.context: at 0.1 µM
property.label: inhibition

stdin: Look at this compound and give its reported inhibition. `NS(=O)(=O)c1ccc(NC=C2C(=O)Nc3ccc4ncsc4c32)cc1`
stdout: 27.4%

stdin: Look at this compound and give its reported inhibition. `CCS(=O)(=O)c1ccc(OC)c(Nc2nccc(N(C)c3ccc4c(C)n[nH]c4c3)n2)c1`
stdout: 2.12%

stdin: Look at this compound and give its reported inhibition. `FC(F)(F)c1ccc(-c2nn3ncccc3c2-c2ccnc(Nc3ccc4c(c3)OCCO4)n2)cc1`
stdout: 4.66%

stdin: Look at this compound and give its reported inhibition. `O=S(=O)(CCOCc1ccc(-c2ccc3ncnc(Nc4ccc(OCc5cccc(F)c5)c(Cl)c4)c3c2)o1)c1ccccc1`
stdout: 1.09%

stdin: Look at this compound and give its reported inhibition. `CN(C)c1cc2c(Nc3ccc4c(cnn4Cc4ccccc4)c3)ncnc2cn1`
stdout: 2.57%

stdin: Look at this compound and give its reported inhibition. `NS(=O)(=O)c1cccc(-c2cc3ccncc3cc2OCc2ccccc2)c1`
stdout: 2.25%

stdin: Look at this compound and give its reported inhibition. `OCc1ccc(-c2nc(-c3ccccn3)c(-c3ccc4c(c3)OCO4)[nH]2)cc1`
stdout: 3.74%

stdin: Look at this compound and give its reported inhibition. `CCn1c(-c2nonc2N)nc2c(C#CC(C)(C)O)nc(OCCNC)cc21`
stdout: 3.51%

stdin: Look at this compound and give its reported inhibition. `CCOc1nccc2c1nc(-c1nonc1N)n2CC`
stdout: 4.9%

###

# experimental.target: Phosphatidylinositol 4-kinase beta (Homo sapiens) (UniProt Q9UBF8);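 also: values are mean percent inhibition of PI4K-beta activity, averaged over replicate measurements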
# Sequence (Q9UBF8 2-816 limits assumed): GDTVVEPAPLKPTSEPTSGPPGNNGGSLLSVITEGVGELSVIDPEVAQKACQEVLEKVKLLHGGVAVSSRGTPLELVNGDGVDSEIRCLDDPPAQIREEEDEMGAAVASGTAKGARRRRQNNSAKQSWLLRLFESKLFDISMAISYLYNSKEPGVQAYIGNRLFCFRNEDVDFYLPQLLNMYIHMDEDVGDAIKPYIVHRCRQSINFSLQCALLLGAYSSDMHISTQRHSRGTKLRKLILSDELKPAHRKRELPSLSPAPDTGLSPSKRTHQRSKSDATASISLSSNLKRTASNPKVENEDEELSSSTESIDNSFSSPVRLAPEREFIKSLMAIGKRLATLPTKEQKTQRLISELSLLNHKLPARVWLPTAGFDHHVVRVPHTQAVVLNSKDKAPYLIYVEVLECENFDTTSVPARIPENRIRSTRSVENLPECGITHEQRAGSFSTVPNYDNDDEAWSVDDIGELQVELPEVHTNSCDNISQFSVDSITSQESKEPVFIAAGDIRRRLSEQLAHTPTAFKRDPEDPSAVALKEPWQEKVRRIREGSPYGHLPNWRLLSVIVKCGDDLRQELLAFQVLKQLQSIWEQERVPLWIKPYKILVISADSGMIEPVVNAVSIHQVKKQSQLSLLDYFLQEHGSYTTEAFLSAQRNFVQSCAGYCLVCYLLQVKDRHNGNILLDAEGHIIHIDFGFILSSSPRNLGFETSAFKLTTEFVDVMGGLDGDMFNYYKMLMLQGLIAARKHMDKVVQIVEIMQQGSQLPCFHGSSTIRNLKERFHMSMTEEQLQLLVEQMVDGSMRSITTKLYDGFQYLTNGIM
# experimental.context: at 1 µM
property.label: inhibition

# example entries with known answers
compound_string=C[C@@H](Oc1cc(-n2cnc3ccc(OCC4CCN(C)CC4)cc32)sc1C(N)=O)c1ccccc1C(F)(F)F property_label=inhibition assay_result=0.1%
compound_string=Cc1ccc(C(=O)NC2CC2)cc1-c1ccc2[nH]ncc2c1 property_label=inhibition assay_result=-2.52%
compound_string=Cc1ccc(O)cc1Nc1ccnc2ccc(S(C)(=O)=O)cc12 property_label=inhibition assay_result=1.39%
compound_string=CC(C)c1ccc2c(c1)NC(=O)/C2=N/Nc1ccc(S(N)(=O)=O)cc1 property_label=inhibition assay_result=0.24%

Consider the record given below.
stdin: Look at this molecule and give its reported inhibition. `NS(=O)(=O)c1cccc(Nc2cc(-c3ccc(F)cc3)n[nH]2)c1`
stdout: 0.88%

###

# experimental.target: Serine/threonine-protein kinase Nek1 (Homo sapiens) (UniProt Q96PY6)
# Sequence (Q96PY6 whole entry): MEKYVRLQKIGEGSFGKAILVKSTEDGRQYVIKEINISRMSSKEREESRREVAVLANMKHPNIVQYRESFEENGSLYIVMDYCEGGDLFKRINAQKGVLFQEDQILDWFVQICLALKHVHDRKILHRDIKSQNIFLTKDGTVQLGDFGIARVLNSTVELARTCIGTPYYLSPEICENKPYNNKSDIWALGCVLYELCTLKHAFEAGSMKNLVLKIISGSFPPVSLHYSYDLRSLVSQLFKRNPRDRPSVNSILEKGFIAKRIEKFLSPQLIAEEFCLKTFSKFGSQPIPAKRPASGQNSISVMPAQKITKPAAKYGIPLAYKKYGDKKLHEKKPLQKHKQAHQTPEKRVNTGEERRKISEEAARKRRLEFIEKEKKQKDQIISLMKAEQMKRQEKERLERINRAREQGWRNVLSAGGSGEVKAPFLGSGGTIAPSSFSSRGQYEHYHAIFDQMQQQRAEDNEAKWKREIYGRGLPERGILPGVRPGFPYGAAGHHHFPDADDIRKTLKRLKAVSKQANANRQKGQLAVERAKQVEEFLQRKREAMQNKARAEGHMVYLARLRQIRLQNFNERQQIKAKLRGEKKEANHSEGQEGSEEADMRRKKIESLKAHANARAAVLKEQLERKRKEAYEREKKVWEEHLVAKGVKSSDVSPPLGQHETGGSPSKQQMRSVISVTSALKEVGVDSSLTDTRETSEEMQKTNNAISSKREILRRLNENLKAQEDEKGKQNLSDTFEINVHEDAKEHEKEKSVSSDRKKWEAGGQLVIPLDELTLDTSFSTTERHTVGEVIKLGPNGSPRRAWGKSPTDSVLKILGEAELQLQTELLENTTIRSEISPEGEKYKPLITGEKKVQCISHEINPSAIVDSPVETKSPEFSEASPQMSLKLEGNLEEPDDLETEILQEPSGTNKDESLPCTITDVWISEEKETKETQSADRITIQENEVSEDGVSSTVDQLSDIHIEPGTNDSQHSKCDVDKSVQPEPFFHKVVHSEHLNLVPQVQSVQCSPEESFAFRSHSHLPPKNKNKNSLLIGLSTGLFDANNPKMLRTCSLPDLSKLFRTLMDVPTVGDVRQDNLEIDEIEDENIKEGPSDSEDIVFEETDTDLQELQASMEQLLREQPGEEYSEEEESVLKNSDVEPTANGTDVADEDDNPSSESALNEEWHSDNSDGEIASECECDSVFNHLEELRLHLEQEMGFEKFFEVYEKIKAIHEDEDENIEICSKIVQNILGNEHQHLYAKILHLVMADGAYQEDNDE
# experimental.context: at 1 µM
# Description: GSK_PKIS: NEK1 mean inhibition at 1 uM [Nanosyn]
Recorded inhibition for the following compounds
# number only, unit % dropped from output

compound=NS(=O)(=O)c1ccc(-c2cc3ccncc3cc2OCc2ccccc2)cc1 experimental_target="Serine/threonine-protein kinase Nek1 (Homo sapiens) (UniProt Q96PY6)" assay_result=2.44

stdin: Identify the measured inhibition of `COc1cc2ncnc(Nc3ccc4c(cnn4Cc4ccccc4)c3)c2cc1OC` for Serine/threonine-protein kinase Nek1 (Homo sapiens) (UniProt Q96PY6).
stdout: 0.76

stdin: Identify the measured inhibition of `ON=C1CCc2cc(-c3nc(C4CCNCC4)[nH]c3-c3ccncc3)ccc21` for Serine/threonine-protein kinase Nek1 (Homo sapiens) (UniProt Q96PY6).
stdout: -0.17

stdin: Identify the measured inhibition of `O=S(=O)(CCOCc1ccc(-c2ccc3ncnc(Nc4ccc(OCc5cccc(F)c5)c(Cl)c4)c3c2)o1)c1ccccc1` for Serine/threonine-protein kinase Nek1 (Homo sapiens) (UniProt Q96PY6).
stdout: 1.59

stdin: Identify the measured inhibition of CCCN1CCCC(c2ccc(Nc3nc(Nc4cc(F)ccc4C(N)=O)c4cc[nH]c4n3)c(OC)c2)C1 (stereo unspecified) for Serine/threonine-protein kinase Nek1 (Homo sapiens) (UniProt Q96PY6).
stdout: 21.6

stdin: Identify the measured inhibition of `O=C1Nc2ccccc2/C1=C/Nc1ccc2[nH]c(=O)[nH]c2c1` for Serine/threonine-protein kinase Nek1 (Homo sapiens) (UniProt Q96PY6).
stdout: 2.85

stdin: Identify the measured inhibition of `COc1cccc(-n2nc(C)c3c(N/N=C(\C)c4ccncc4)ncnc32)c1` for Serine/threonine-protein kinase Nek1 (Homo sapiens) (UniProt Q96PY6).
stdout: -0.2

stdin: Identify the measured inhibition of `COc1ccc(-c2nn3ncccc3c2-c2ccnc(Nc3cccc(C(F)(F)F)c3)n2)cc1` for Serine/threonine-protein kinase Nek1 (Homo sapiens) (UniProt Q96PY6).
stdout: 0.9

stdin: Identify the measured inhibition of `Nc1nccc(-c2c(-c3ccc(F)cc3)nn3cc(C(F)(F)F)ccc23)n1` for Serine/threonine-protein kinase Nek1 (Homo sapiens) (UniProt Q96PY6).
stdout: -0.62

###

# experimental.target: Tyrosine-protein kinase Yes (Homo sapiens) (UniProt P07947);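 also: mean inhibition of YES, from the GSK PKIS dataset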
# Sequence (P07947 2-543 limits assumed): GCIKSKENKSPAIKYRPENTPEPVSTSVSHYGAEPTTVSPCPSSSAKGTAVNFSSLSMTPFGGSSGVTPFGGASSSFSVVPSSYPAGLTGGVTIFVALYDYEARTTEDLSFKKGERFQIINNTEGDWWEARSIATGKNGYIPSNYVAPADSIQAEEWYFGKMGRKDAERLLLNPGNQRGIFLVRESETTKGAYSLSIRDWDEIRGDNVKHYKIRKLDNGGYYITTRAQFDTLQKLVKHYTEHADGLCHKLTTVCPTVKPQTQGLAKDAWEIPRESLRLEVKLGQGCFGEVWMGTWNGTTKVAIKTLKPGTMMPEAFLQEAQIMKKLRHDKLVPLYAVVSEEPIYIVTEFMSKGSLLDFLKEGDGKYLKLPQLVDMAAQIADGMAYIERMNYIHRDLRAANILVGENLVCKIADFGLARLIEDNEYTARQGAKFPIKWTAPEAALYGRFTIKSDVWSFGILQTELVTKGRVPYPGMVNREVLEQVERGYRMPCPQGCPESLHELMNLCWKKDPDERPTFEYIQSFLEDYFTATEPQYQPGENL
# experimental.context: at 0.1 µM
property.label: inhibition (%)
# number only, unit % dropped from output

compound_string=COc1cccc(-n2ncc3c(N/N=C/c4ccc(C)cc4)ncnc32)c1 assay_result=4.03
compound_string=CS(=O)(=O)CCNCc1nc(-c2ccc3ncnc(Nc4ccc(OCc5cccc(C(F)(F)F)c5)cc4)c3c2)cs1 assay_result=1.94
compound_string=NS(=O)(=O)c1cccc(-c2cc3ccncc3cc2OCc2ccccc2)c1 assay_result=0.88
compound_string=CN(c1ccc(NC(=O)Nc2ccc(OC(F)(F)F)cc2)cc1)c1ccnc(Nc2cccc(S(N)(=O)=O)c2)n1 assay_result=15.5
compound_string=C[C@@H](Oc1cc(-n2cnc3ccc(OCC4CCN(C)CC4)cc32)sc1C(N)=O)c1ccccc1C(F)(F)F assay_result=4.36
compound_string=[O-][S+]1CCN(Cc2ccc(-c3ccc4ncnc(Nc5ccc(OCc6ccccc6)c(Cl)c5)c4c3)o2)CC1 assay_result=6.47
compound_string=CCn1c(-c2nonc2N)nc2c(C#CC(C)(C)O)nc(OCCNC)cc21 assay_result=3.64
compound_string=ON=C1CCc2cc(-c3nc(C4CCNCC4)[nH]c3-c3ccncc3)ccc21 assay_result=-1.71

stdin: Look at this compound and give its reported inhibition. `Cc1ccc2c(c1)/C(=N/Nc1ccc(S(N)(=O)=O)cc1)C(=O)N2`
stdout: -0.04

stdin: Look at this compound and give its reported inhibition. `COc1cc(Nc2nccc(-c3cnn4ncccc34)n2)cc(OC)c1`
stdout: 9.16

stdin: Look at this compound and give its reported inhibition. `NS(=O)(=O)c1ccc(NC=C2C(=O)Nc3ccc4ncsc4c32)cc1`
stdout: 9.65

###

# experimental.target: Serine/threonine-protein kinase Sgk1 (Homo sapiens)
# Sequence (whole entry): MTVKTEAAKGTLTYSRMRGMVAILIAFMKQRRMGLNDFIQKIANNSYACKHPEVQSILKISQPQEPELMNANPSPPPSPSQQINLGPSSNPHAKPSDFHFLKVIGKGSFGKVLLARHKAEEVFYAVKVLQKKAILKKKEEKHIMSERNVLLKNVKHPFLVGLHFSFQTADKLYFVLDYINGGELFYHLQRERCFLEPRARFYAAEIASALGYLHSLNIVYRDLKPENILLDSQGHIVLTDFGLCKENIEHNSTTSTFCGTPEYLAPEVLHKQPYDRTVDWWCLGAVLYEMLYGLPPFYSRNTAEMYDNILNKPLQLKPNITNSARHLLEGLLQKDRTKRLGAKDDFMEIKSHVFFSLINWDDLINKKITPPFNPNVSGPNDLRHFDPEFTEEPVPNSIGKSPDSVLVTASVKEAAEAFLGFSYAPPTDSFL
# experimental.context: at 0.1 µM
# Description: GSK_PKIS: SGK1 mean inhibition at 0.1 uM [Nanosyn]
property.label: inhibition (%)
# number only, unit % dropped from output

# example entries with known answers
compound_string=CS(=O)(=O)CCNCc1nc(-c2ccc3ncnc(Nc4ccc(OCc5cccc(C(F)(F)F)c5)cc4)c3c2)cs1 experimental_target="Serine/threonine-protein kinase Sgk1 (Homo sapiens)" output_unit=% assay_result=-0.21
compound_string=COc1cccc(-n2ncc3c(N/N=C/c4ccc(C)cc4)ncnc32)c1 experimental_target="Serine/threonine-protein kinase Sgk1 (Homo sapiens)" output_unit=% assay_result=0.12
compound_string=c1ccc(Cc2nc3ccc(Nc4ncnc5ccccc45)cc3[nH]2)cc1 experimental_target="Serine/threonine-protein kinase Sgk1 (Homo sapiens)" output_unit=% assay_result=1.05
compound_string=NC(=O)c1sc(-n2cnc3ccccc32)cc1OCc1ccccc1Br experimental_target="Serine/threonine-protein kinase Sgk1 (Homo sapiens)" output_unit=% assay_result=2.26

Consider the record given below.
stdin: Look at this molecule and give its reported inhibition. `C[C@@H](Oc1cc(-n2cnc3ccc(OCC4CCN(C)CC4)cc32)sc1C(N)=O)c1ccccc1C(F)(F)F`
stdout: 0.5

###

# Tested on: Epidermal growth factor receptor (Homo sapiens), P00533 [L861Q]
# Sequence (P00533 whole entry L861Q): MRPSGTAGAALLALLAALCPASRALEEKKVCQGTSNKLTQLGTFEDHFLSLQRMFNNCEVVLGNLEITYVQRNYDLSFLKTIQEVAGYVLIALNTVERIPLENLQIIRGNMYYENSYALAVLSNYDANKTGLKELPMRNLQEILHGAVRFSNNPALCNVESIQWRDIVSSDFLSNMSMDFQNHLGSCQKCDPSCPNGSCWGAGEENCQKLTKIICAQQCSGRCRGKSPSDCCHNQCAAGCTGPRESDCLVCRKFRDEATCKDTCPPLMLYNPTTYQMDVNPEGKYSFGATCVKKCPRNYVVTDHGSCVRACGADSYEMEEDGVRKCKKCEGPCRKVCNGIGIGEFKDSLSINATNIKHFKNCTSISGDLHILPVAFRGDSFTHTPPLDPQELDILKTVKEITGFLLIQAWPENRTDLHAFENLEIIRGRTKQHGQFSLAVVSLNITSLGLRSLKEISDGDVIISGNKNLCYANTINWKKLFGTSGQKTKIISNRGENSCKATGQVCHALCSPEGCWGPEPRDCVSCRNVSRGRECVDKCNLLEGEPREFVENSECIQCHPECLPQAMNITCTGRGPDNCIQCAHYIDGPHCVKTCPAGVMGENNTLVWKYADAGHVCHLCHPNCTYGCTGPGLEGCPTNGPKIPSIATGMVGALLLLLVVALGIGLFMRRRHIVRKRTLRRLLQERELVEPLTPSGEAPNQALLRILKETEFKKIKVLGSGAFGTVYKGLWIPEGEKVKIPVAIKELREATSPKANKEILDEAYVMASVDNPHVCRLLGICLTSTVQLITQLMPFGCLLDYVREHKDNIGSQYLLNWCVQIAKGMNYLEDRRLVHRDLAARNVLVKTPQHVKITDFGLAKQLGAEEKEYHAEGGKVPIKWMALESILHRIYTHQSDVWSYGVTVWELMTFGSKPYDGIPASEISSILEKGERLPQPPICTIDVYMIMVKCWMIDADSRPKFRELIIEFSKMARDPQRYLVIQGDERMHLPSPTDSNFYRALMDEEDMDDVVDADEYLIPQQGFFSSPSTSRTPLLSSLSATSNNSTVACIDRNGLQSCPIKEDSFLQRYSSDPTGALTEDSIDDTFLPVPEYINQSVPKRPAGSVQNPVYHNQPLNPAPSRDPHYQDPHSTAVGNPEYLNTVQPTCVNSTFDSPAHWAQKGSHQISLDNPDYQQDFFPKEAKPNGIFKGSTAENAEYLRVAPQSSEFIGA
# experimental.context: at 1 µM
property.label: inhibition (%)
# number only, unit % dropped from output

# example entries with known answers
compound_string=O=C1Nc2ccccc2/C1=C/Nc1ccc2[nH]c(=O)[nH]c2c1 assay_result=6.47
compound_string=Nc1ccc(C#Cc2cncnc2Nc2ccc(OCc3cccc(F)c3)c(Cl)c2)cc1 assay_result=37.2
compound_string=FC(F)(F)c1ccc(-c2nn3ncccc3c2-c2ccnc(Nc3ccc4c(c3)OCCO4)n2)cc1 assay_result=27.6
compound_string=NS(=O)(=O)c1ccc(Nc2cc(-c3cccc(O)c3)n[nH]2)cc1 assay_result=1.85

stdin: Look at this compound and give its reported inhibition. `CS(=O)(=O)CCNCc1nc(-c2ccc3ncnc(Nc4ccc(OCc5cccc(C(F)(F)F)c5)cc4)c3c2)cs1`
stdout: 34.8

stdin: Look at this compound and give its reported inhibition. `COC(=O)Nc1nc2cc(Oc3ccc(NC(=O)Nc4cccc(Br)c4)cc3)ccc2[nH]1`
stdout: 4.1

stdin: Look at this compound and give its reported inhibition. `CN(c1ccc(NC(=O)Nc2ccc(OC(F)(F)F)cc2)cc1)c1ccnc(Nc2cccc(S(N)(=O)=O)c2)n1`
stdout: 5.92

stdin: Look at this compound and give its reported inhibition. `COc1cc2ncnc(Nc3ccc4c(cnn4Cc4ccccc4)c3)c2cc1OC`
stdout: 84.8

stdin: Look at this compound and give its reported inhibition. `Cc1ccc(O)cc1Nc1ccnc2ccc(S(C)(=O)=O)cc12`
stdout: 31.9

stdin: Look at this compound and give its reported inhibition. `ON=C1CCc2cc(-c3nc(C4CCNCC4)[nH]c3-c3ccncc3)ccc21`
stdout: -2.11

stdin: Look at this compound and give its reported inhibition. `CCS(=O)(=O)c1ccc(OC)c(Nc2nccc(N(C)c3ccc4c(C)n[nH]c4c3)n2)c1`
stdout: 31.4
